Entry source: patent US20240368302A1

Reported koff is given for each of the following binders.
# System under test: T1, human TROP2-Fc protein antigen (human, UniProt P09758 27-274)
# T1 construct: extracellular domain; also called CRD + TY-1 + CPD; not shown: IgG Fc of the pFUSE-IgG plasmid
# T1 sequence (looked up): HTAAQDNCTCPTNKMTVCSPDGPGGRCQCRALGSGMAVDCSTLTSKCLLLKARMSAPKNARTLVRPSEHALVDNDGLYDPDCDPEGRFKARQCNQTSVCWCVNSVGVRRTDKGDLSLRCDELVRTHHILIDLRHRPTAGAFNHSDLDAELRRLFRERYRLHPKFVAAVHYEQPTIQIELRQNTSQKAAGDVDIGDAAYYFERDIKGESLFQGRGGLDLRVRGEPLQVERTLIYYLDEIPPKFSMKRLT
# Method notes: SPR (Biacore 8K), human TROP2-Fc on CM-5 chip, VHH in flow
Give a bare numeral; the unit s⁻¹ is implied.

MY1530-6-1 (VHH, Expressed in E. coli WK6 from vector pMECS, purified on a nickel column; also called MY1530-6-1 VHH; anti-TROP2 single domain antibody) VHH: QVQLQESGGGSVQAGGSLRLSCAASGFPYSSYSMGWFRQAPGKEREGVAAIYTGGGSTYYAGSVKGRFTISQEHATNTLYLQMNSLKPEDTAMYYCAANMVDNGVISGIQALGVRYYNYWGQGTQVTVSS	0.000227

IN: # query: koff of entry MY1530-2-53 (VHH, Expressed in E. coli WK6 from vector pMECS, purified on a nickel column; also called MY1530-2-53 VHH; anti-TROP2 single domain antibody) VHH: QVQLQESGGGSVQAGGSLRLSCAVSGLTSSTTCMGWFRQAPGKEREGVAVIRSSGETTAADSVKGRFTISRDNAKNTLSLQMTSLKPEDTAMYYCAAAWPYSGCLLPLSSGDFTYWGQGTQVTVSS
OUT: 0.00443

IN: Would you mind telling me what koff value was observed for MY1530-4-28 (VHH, Expressed in E. coli WK6 from vector pMECS, purified on a nickel column; also called MY1530-4-28 VHH; anti-TROP2 single domain antibody) VHH: QVQLQESGGGSVQAGGSLRLSCAASGFSVSTTWMHWVRQAPGKGLEWVSRIAINDHTFYAESVKGRFTMSTDNAKNTVYLQMTSLKPEDTAVYYCSPYSDYRIRGQGTQVTVSS ?
OUT: 0.000717

IN: For the binder shown here, MY1530-1-26 (VHH, Expressed in E. coli WK6 from vector pMECS, purified on a nickel column; also called MY1530-1-26 VHH; anti-TROP2 single domain antibody) VHH: QVQLQESGGGSVQAGGSLRLSCVVSGYTTTRYSMAWFRQAPGKEREGVAGIDTDVLTTYKPSVEGRFTISRDSAKRTLYLQMNSLKPEDTAMYYCATGTGNFLALDPVWYNTWGQGTQVTVSS , give the reported koff.
OUT: 0.00304
